Where do the numbers come from? From patent US12686687B2.

Items are presented alongside their recorded DC50.
- measured on: Nanoluciferase-BRD9 fusion protein (3×FLAG-NLuc-BRD9) in SYO-1 cells (Homo sapiens, UniProt Q9H8M2)
- Construct: expressed in transfected cells; host or cells: SYO-1
- Sequence (Q9H8M2 1-597): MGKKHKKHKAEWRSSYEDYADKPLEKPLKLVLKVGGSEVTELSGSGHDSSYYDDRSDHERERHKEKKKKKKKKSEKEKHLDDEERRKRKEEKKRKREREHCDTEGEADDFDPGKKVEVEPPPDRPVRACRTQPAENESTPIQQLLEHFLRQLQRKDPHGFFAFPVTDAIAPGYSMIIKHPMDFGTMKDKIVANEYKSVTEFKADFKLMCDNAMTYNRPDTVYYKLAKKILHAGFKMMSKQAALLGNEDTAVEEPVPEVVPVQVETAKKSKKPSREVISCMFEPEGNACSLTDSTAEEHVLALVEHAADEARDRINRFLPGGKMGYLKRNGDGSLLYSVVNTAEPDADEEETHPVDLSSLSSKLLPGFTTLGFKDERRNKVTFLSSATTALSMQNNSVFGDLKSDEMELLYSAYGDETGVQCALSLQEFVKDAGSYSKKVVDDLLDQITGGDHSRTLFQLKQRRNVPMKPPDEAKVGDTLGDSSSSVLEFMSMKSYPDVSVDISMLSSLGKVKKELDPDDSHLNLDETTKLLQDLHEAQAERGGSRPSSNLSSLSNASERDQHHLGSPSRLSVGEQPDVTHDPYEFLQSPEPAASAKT
- procedure text: SYO1 BRD9 NanoLuc degradation assay
- Format: cell-based
- experimental conditions: Table 6C; SYO-1 cells expressing 3×FLAG-NLuc-BRD9, 6 hours incubation, 1 μM top dose; read-out: SYO1 BRD9-NanoLuc degradation IC50

Request the reported DC50 associated with COc1cc(-c2cn(C)c(=O)c3cc(C#N)sc23)cc(OC)c1CN1CCC2(CC1)CN(c1ccc3c(c1)C(=O)N(C1CCC(=O)NC1=O)C3)C2 (stereo not shown)
< 10 nM
